Counter-ions that a name gives are not always drawn.
value-kind: melting point

Example cases with answers are listed next.
molecule: CCC1(CCCCN2CCN(c3ccc(Cl)cc3)CC2)C(=O)Nc2ccc(C)cc21 (centres unmarked)
melting point: 175 to 177 °C
//
molecule: CCC1(CCCCN2CCN(c3ccc(Cl)c(Cl)c3)CC2)C(=O)Nc2ccc(F)cc21 (centres unmarked)
melting point: 152 to 155 °C
//
molecule: CCC1(CCCCN2CCN(c3cccc(Cl)c3)CC2)C(=O)Nc2ccc(F)cc21 (centres unmarked) (as salt: hydrochloride) [Example 85, mono-hydrochloride]
melting point: 121 to 124 °C
//
molecule: CCC1(CCCCCN2CCN(c3ccc(Cl)cc3)CC2)C(=O)Nc2c(Cl)cc(Cl)cc21 (centres unmarked)
melting point: 145 to 148 °C
//
molecule: CCC1(CCCCN2CCN(c3ccc(Cl)cc3)CC2)C(=O)Nc2cc(F)c(Cl)cc21 (centres unmarked)
melting point: 194 to 197 °C
//
molecule: CC(C)CC1(CCCCN2CCN(c3cccc4c3OCCO4)CC2)C(=O)Nc2ccccc21 (centres unmarked)
melting point: 152 to 154 °C
//
molecule: CCC1(CCCCN2CCN(c3ccc(F)cc3)CC2)C(=O)Nc2ccc(F)cc21 (centres unmarked)
melting point: 119 to 122 °C
//
molecule: CCC1(CCCCN2CCN(c3ccc(C)c(Cl)c3)CC2)C(=O)Nc2ccccc21 (centres unmarked)
melting point: 103 to 106 °C

Please report the recorded melting point for CCC1(CCCCN2CCN(c3ccccn3)CC2)C(=O)Nc2ccc(C)cc21 (centres unmarked) .
168 to 170 °C

Please report the recorded melting point for CCC1(CCCCN2CCN(c3ccc(F)cc3)CC2)C(=O)Nc2c(Cl)cc(F)cc21 (centres unmarked) .
161 to 162 °C

Please report the recorded melting point for CCC1(CCCCN2CCN(c3cccc(Cl)c3)CC2)C(=O)Nc2ccc(C)cc21 (centres unmarked) .
142 to 144 °C

Please report the recorded melting point for CCC1(CCCCCCN2CCN(c3cccc(Cl)c3)CC2)C(=O)Nc2ccccc21.Cl (centres unmarked) .
124 to 127 °C

Please report the recorded melting point for CCC1(CCCCN2CCN(c3cccc(Cl)c3)CC2)C(=O)Nc2cc(F)ccc21 (centres unmarked) .
116 to 117 °C

Please report the recorded melting point for CCC1(CCCCN2CCN(c3cccc4c3OCCO4)CC2)C(=O)Nc2cc(F)ccc21 (centres unmarked) .
146 to 147 °C

Please report the recorded melting point for CCC1(CCCCN2CCN(c3cccc(Cl)c3)CC2)C(=O)Nc2ccc(Cl)cc21 (centres unmarked) .
139 to 142 °C

Please report the recorded melting point for CCC1(CCCCN2CCN(c3ccc(Cl)cc3)CC2)C(=O)Nc2ccccc21 (centres unmarked) .
145 to 146 °C

Please report the recorded melting point for CCC1(CCCCN2CCN(c3ccc(Cl)c(Cl)c3)CC2)C(=O)Nc2c(Cl)cc(Cl)cc21 (centres unmarked) .
164 to 165 °C
